Task for the reader: assign each of the following binders its reported EC50 group, cGMP in GTM-3 cells.
MEASURED_ON: T1, natriuretic peptide receptor-B (human)
T1 chain: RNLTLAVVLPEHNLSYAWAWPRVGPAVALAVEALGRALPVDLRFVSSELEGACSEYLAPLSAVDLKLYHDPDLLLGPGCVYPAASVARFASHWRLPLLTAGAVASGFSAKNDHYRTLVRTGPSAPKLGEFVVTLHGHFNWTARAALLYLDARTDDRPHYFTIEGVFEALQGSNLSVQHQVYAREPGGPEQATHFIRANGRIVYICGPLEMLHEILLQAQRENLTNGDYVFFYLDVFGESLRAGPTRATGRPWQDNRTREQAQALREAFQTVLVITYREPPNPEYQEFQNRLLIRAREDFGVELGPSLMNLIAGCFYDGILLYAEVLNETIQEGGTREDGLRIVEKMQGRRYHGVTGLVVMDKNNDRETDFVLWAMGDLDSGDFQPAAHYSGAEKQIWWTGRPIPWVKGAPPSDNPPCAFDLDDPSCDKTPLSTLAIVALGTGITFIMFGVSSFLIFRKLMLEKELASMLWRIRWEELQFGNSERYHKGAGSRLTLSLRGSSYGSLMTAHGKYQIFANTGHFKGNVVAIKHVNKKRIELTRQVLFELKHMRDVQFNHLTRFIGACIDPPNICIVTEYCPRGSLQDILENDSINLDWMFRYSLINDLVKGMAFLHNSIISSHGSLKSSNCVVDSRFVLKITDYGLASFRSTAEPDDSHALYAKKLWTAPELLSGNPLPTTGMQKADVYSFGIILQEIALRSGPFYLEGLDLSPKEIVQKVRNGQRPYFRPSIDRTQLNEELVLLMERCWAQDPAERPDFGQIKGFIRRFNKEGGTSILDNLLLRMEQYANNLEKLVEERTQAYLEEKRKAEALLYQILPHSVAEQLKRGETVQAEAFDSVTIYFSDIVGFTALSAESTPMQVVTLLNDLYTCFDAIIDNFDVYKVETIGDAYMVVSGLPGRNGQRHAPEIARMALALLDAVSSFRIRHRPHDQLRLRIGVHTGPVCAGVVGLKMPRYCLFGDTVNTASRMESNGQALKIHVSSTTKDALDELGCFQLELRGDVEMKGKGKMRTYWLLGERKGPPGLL
MEASUREMENT_NOTES: cell-based or functional assay
Square brackets hold non-standard residues; d marks the D form. Ends that are not written are not given here. * marks the point of attachment. Butanoyl(4-cHex) = O=C(CCCC1CCCCC1)*; Hyp = O=C(O)[C@@H]1C[C@@H](O)CN1; Dap(Me2) = CN(C)C[C@H](N)C(=O)O; hLeu = CC(C)CC[C@H](N)C(=O)O; Octanoyl = CCCCCCCC(=O)*; Occ = octanoic acid

> print(dat)
                                     binder                       observable  value.observed
1  {Butanoyl(4-cHex)}-[dP]FGLKLDRI-NH2 [JAL-0695]  EC50 group, cGMP in GTM-3 cells         ≤ 15 µM
2  Octanoyl-[dA]F[dL]L[Hyp][Dap(Me2)]DRI-NH2 [JAL-1367]  EC50 group, cGMP in GTM-3 cells          ≤ 1 µM

QUERY: Reported EC50 group, cGMP in GTM-3 cells for [Occ][dA]FGLP[hLeu]DRI-NH2 [JAL-0959] : what is it?
RESULT: ≤ 15 µM
